target: human GcgR (Homo sapiens); assay: Functional cAMP activity in the presence of 1% HSA; format: cell-based; conditions: read-out: cAMP Rel EC50, hGcgR
Sequence (P47871 26-477): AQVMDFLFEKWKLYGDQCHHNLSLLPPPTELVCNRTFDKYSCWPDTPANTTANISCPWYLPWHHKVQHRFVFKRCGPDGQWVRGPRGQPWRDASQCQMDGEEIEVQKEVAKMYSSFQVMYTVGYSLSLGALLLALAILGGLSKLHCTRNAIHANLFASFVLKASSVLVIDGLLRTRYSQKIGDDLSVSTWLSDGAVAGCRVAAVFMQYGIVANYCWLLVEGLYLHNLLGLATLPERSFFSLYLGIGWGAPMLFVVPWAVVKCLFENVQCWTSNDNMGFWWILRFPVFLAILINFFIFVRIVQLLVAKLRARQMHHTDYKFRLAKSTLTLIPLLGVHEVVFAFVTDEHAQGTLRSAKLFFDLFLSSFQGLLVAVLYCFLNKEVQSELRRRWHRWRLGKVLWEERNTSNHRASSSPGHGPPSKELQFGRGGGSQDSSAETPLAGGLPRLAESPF
Starred links: 1 amine or outer side, 2 acyl side, 3 side chain; linkers in the order of their positions; H or OH if unused. Non-standard residues stand in square brackets, D forms with d. Groups on a side chain read outwards from the residue. *: point of attachment. C20 diacid = O=C(O)CCCCCCCCCCCCCCCCCCC(=O)*; C18 diacid = O=C(O)CCCCCCCCCCCCCCCCC(=O)*; αMePhe(2-F) = C[C@](N)(Cc1ccccc1F)C(=O)O; γGlu = O=C(O)[C@H](CCC(=O)[*:2])N[*:1]; αMe4Pal = C[C@](N)(Cc1ccncc1)C(=O)O; αMeY = C[C@](N)(Cc1ccc(O)cc1)C(=O)O; 4Pal = N[C@@H](Cc1ccncc1)C(=O)O; αMeL = CC(C)C[C@](C)(N)C(=O)O; αMeS = C[C@](N)(CO)C(=O)O; Orn = NCCC[C@H](N)C(=O)O; AEEA = NCCOCCOCC(=O)O; Aib = CC(C)(N)C(=O)O
Reported Metric: EC50 (nM)
Entry rule: numbers only, all in nM.

H-Y[Aib]QGTFTSDFS[Orn][αMeL]LDKK([AEEA-γGlu-C20 diacid])AQ[Aib]AFIEYLLAGGPSSGAPPPSGS-NH2 [Example 76]    2240

Which value of EC50 has been reported for H-Y[Aib]QGT[αMePhe(2-F)]TSD[4Pal][αMeS]I[αMeL]LD[Orn][Orn]([AEEA-γGlu-C18 diacid])AQ[αMe4Pal]EFI[dE][αMeY]LIEGGPSSGAPPPSGS-NH2 [Example 1211] in the records? 211

Same question, H-Y[Aib]QGT[αMePhe(2-F)]TSD[4Pal][αMeS]I[αMeL]LD[Orn]K([AEEA-γGlu-C18 diacid])AQ[αMe4Pal]EFI[dE][αMeY]LVEGGPSSGEPPPSGSEE-NH2 [Example 736] this time 245
